Data provenance: BigSolDB 2.1

settings: in DMF, 283.15 K
Quantity name: solubility (mole fraction)
One number for each entry.

Request the reported solubility (mole fraction) associated with `Nc1cnc(Br)cn1`
0.00942

###

conditions: in n-butanol, 288.15 K
Quantity name: solubility (mole fraction)
Numbers only.

What measured solubility (mole fraction) goes with `Nc1cnc(Br)cn1` ?
0.00678

###

conditions: in methanol, 313.15 K
Quantity name: solubility (mole fraction)
One number for each entry.

Would you kindly share the measured solubility (mole fraction) for `Nc1cnc(Br)cn1` ?
0.00185

###

conditions: in ethylene glycol, 283.15 K
Quantity name: solubility (mole fraction)
Numbers only.

For `Nc1cnc(Br)cn1` , what is its reported solubility (mole fraction)?
0.000773
